Where do the numbers come from? From patent US7304083B2.

Catalogue of molecules with associated IC50
Target or test system: PAR1 thrombin receptor (Homo sapiens, UniProt P25116)
Construct: centrifuged at 40,000 g for 60 minutes to yield platelet membrane; from tissue; host or cells: platelet membrane prepared from platelet rich plasma of a healthy adult donor
Sequence (P25116 22-425): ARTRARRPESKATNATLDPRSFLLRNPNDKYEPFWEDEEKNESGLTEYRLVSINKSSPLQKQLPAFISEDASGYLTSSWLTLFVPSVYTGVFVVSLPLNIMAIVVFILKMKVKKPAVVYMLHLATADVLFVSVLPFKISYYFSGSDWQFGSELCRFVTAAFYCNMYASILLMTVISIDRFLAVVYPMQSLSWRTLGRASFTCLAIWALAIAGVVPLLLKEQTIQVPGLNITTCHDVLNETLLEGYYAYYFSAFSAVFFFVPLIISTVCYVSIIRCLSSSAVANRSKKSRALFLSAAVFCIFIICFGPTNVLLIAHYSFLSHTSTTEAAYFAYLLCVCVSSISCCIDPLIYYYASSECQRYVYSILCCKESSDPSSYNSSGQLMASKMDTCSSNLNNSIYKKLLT
Measurement description: Receptor binding assay ([3H] high affinity TRAP, platelet membrane)
Applied conditions: 25 nM [3H] high affinity TRAP, 37° C. for 1 hour, read-out: RBA IC50
Structures can show the parent of a compound that is named as a salt.
The answer is to be given in µM; state only the numeric part.

CCC(CC)CCn1ccn(CC(=O)c2cc(C(C)(C)C)c(O)c(C(C)(C)C)c2)c1=N [Example 1, hydrobromide] = 0.074

Moving on to another molecule below.
Could you share which IC50 value was measured for CC(C)(C)c1cc(C(=O)Cn2ccn(Cc3ccccc3)c2=N)cc(C(C)(C)C)c1O [Example 2, hydrobromide] ?
0.25
